Test system: Cortical Cells
Test method notes: Neurite Cell Outgrowth Assay, cortical cells
Assay type: cell-based
Applied conditions: Rattus norvegicus; 50 nM; percent change over the vehicle response; NA = no change/not active

Molecule | System tested | Result unit | activation at 0.05 µM
Cc1ccccc1-[n+]1sc(Nc2ccccc2Cl)nc1-c1ccccc1 | Cortical Cells | % | 19
COc1ccccc1Nc1nc(-c2ccccc2)[n+](-c2ccccc2)s1 | Cortical Cells | % | 16
COc1ccccc1-[n+]1sc(Nc2ccccc2C)nc1-c1ccccc1 | Cortical Cells | % | 6
COc1ccc(/N=c2\nc(-c3ccccc3)n(-c3ccc(C)cc3)s2)cc1 | Cortical Cells | % | 9
COc1ccc(Nc2nc(-c3ccccc3)[n+](-c3ccccc3Cl)s2)cc1 | Cortical Cells | % | 37
Clc1ccc(-[n+]2sc(Nc3ccccc3Cl)nc2-c2ccccc2)cc1 | Cortical Cells | % | 2
Cc1ccc(-[n+]2sc(Nc3ccc(Cl)cc3)nc2-c2ccccc2)cc1 | Cortical Cells | % | 24
Cc1ccc(Nc2nc(-c3ccccc3)[n+](-c3ccc(C)cc3)s2)cc1 | Cortical Cells | % | 21
Cc1ccc(Nc2nc(-c3ccccc3)[n+](-c3ccc(Cl)cc3)s2)cc1 | Cortical Cells | % | 17
Cc1ccccc1-[n+]1sc(Nc2ccccc2)nc1-c1ccccc1 | Cortical Cells | % | 12
COc1ccc(Nc2nc(-c3ccc(OC)cc3)[n+](-c3ccc(OC)cc3)s2)cc1 | Cortical Cells | % | 10
COc1ccccc1Nc1nc(-c2ccccc2)[n+](-c2ccccc2C)s1 | Cortical Cells | % | 11
Cc1ccc(-[n+]2sc(Nc3ccccc3)nc2-c2ccccc2)cc1 | Cortical Cells | % | 18
Clc1ccc(-[n+]2sc(Nc3ccccc3)nc2-c2ccccc2)cc1 | Cortical Cells | % | 31
Cc1ccc(Nc2nc(-c3ccccc3)[n+](-c3ccccc3C)s2)cc1 | Cortical Cells | % | 10
COc1ccc(-c2nc(Nc3ccccc3Cl)s[n+]2-c2ccc(OC)cc2)cc1 | Cortical Cells | % | 17
COc1ccc(Nc2nc(-c3ccccc3)[n+](-c3ccccc3)s2)cc1 | Cortical Cells | % | 20
Clc1ccccc1Nc1nc(-c2ccccc2)[n+](-c2ccccc2Cl)s1 | Cortical Cells | % | 19

Reference source for all entries: patent US7049331B2
